# Test system: OVCAR-8 ovarian
# assay-info: NCI tumour cell line growth inhibition, 48 h
quantity-name: TGI

NC(Cc1ccc(O)cc1)C(=O)N/N=C/c1ccc(N(CCCl)CCCl)cc1 (stereo not given): 55 µM
NS(=O)(=O)c1cccc(-c2cc3ccncc3cc2OCc2ccccc2)c1: > 25 µM
COc1ccccc1N(C(C)=O)C1=C(Cl)C(=O)c2ccccc2C1=O: > 32.2 µM
CC(C)(C)OC(=O)N1CCCC1C(=O)NCCNc1ccc(NCCNC(=O)C2CCCN2C(=O)OC(C)(C)C)c2c1C(=O)c1ccccc1C2=O (stereo not given): 21 µM
C=C(C)C1Cc2c(cc(OC)c3c(=O)c4ccccc4n(C)c23)O1 (stereo not given): > 100 µM
COC(=O)[C@H]1CC(=O)C=C2CCCC21 (stereo not given in full): > 100 µM
CCOC(=O)c1c(C(F)(F)F)n([O-])c2ccc(Cl)cc2[n+]1=O: 3.9 µM
CCN1CCN(CC(=O)Nc2nc3ccc(NCc4ccc(C)cc4)cc3s2)CC1: 16.5 µM
COC1=CCC2=C(CCN(C(=O)C3CC3)C2Cc2ccc(OC)c(O)c2)C1 (stereo not given): > 100 µM
O=C1C=Cc2c1csc2Br: > 100 µM
C[C@]12CC[C@H]3[C@@H](CC=C4C[C@@H](O)CC[C@@]43C)[C@@H]1C[C@H](N1CCOCC1)[C@@H]2O: > 100 µM
c1ccc2c(c1)ncn2CCn1ccnc1: > 100 µM
N=C1/C(=C/c2ccccc2)C(=O)N=C2SC=NN12: > 100 µM
COC(=O)C(=O)c1cc2ccccc2n1S(=O)(=O)c1ccccc1: > 100 µM
COc1ccc(N2C(=O)C(C#N)=C(SC)C(C#N)C2=O)cc1 (stereo not given): > 100 µM
